tested on: A549 (human lung cancer cells); assay: MTT in vitro anti-tumor activity test, A549; assay type: cell-based; settings: A549 human lung cancer cells, MTT, 72 h
Quantity: A549 IC50 (µg/mL)

Find the recorded A549 IC50 belonging to CCN(CC)CCOc1nc2cc(OC)c(OC)cc2c2c1-c1ccc(OC)cc1C2=O and report it.
1.68

(a) COc1ccc2c(c1)C(=O)c1c-2c(OCCN2CCCC2)nc2cc(OC)c(OC)cc12
(b) O=C1c2cc(Cl)ccc2-c2c(OCCN3CCCCC3)nc3ccccc3c21
(c) CN(C)CCCOc1nc2ccccc2c2c1-c1ccc(Cl)cc1C2=O
Would you mind ranking these molecules by ascending A549 IC50? State the ranking by listing the labels in the requested order.
a, c, b
(a: 1.43 µg/mL, c: 3.04 µg/mL, b: 32.73 µg/mL)

====

test system: A549 (human lung cancer cells); assay: MTT in vitro anti-tumor activity test, A549; type: cell-based; conditions: A549 human lung cancer cells, MTT, 72 h
Quantity: A549 IC50 (mg/L)

Record excerpt, results attached:
Find the recorded A549 IC50 belonging to O=C1c2cc(Cl)ccc2-c2c(OCCn3ccnc3)nc3ccccc3c21 [Compound 10] and report it.
14.48

Cool, now COc1ccc2c(c1)C(=O)c1c-2c(OCCN2CCCC2)nc2ccccc12 [Compound 3]
14.39

(1) COc1ccc2c(c1)C(=O)c1c-2c(OCCN2CCCCC2)nc2cc(OC)c(OC)cc12 [Compound 24]
(2) CCN(CC)CCOc1nc2ccccc2c2c1-c1ccc(Cl)cc1C2=O [Compound 8]
(3) COc1cc2nc(OCCN(C)C)c3c(c2cc1OC)C(=O)c1cc(Cl)ccc1-3 [Compound 26]
(4) COc1ccc2c(c1)C(=O)c1c-2c(OCCCN(C)C)nc2ccc(OC)cc12 [Compound 16]
(5) COc1cc2nc(OCCCN(C)C)c3c(c2cc1OC)C(=O)c1cc(Cl)ccc1-3 [Compound 29]
Put the entries in order of A549 IC50, starting with the largest number. State the ranking by listing the labels in the requested order.
2, 1, 3, 4, 5
(2: 28.56 mg/L, 1: 10.32 mg/L, 3: 6.89 mg/L, 4: 2.91 mg/L, 5: 1.04 mg/L)

====

system: A549 (human lung cancer cells); assay: MTT in vitro anti-tumor activity test, A549; type: cell-based; settings: A549 human lung cancer cells, MTT, 72 h
Quantity: A549 IC50 (µg/mL)

I'm curious: which A549 IC50 was measured for COc1ccc2c(c1)C(=O)c1c-2c(OCCn2ccnc2)nc2ccccc12 tested on A549 (human lung cancer cells)?
16.61

(P) COc1ccc2c(c1)C(=O)c1c-2c(OCCCN(C)C)nc2cc(OC)c(OC)cc12
(Q) CN(C)CCOc1nc2ccccc2c2c1-c1ccc(Cl)cc1C2=O
(R) COc1ccc2c(c1)C(=O)c1c-2c(OCCCN(C)C)nc2ccccc12
Would you mind ranking these compounds by ascending A549 IC50? State the ranking by listing the labels in the requested order.
R, P, Q

====

test system: A549 (human lung cancer cells); assay: MTT in vitro anti-tumor activity test, A549; assay type: cell-based; conditions: A549 human lung cancer cells, MTT, 72 h
Quantity: A549 IC50 (µg/mL)

Find the recorded A549 IC50 belonging to O=C1c2cc(Cl)ccc2-c2c(OCCN3CCCC3)nc3ccccc3c21 and report it.
5.78

Cool, now COc1ccc2c(c1)C(=O)c1c-2c(OCCN2CCCCC2)nc2ccc(OC)cc12
6.95

(I) CCN(CC)CCOc1nc2ccc(OC)cc2c2c1-c1ccc(OC)cc1C2=O
(II) CCN(CC)CCOc1nc2ccccc2c2c1-c1ccc(OC)cc1C2=O
Hello, I am sorting some records. Could you say if I or II has the smaller A549 IC50 value? Identify your selection by its label.
II
(II: 1.53 µg/mL, I: 6.11 µg/mL)

Origin of values: patent US9181193B2
